The measurements presented in this section are drawn from the Human Domainome abundance scans (Beltran et al. 2025).

B1: POU domain, class 2, transcription factor 2, residues 200 to 269; numbered along this chain, P09086 (parent)
chain: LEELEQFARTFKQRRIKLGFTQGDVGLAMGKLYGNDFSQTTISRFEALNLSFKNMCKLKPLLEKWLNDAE

# Variants of: B1
# procedure.text: abundance fitness (aPCA) (normalised: wild type 0, dead -1); higher = more abundant; growth selection in yeast, the domain comes from the species named
# conditions: Homo sapiens
Classification by abundance fitness follows these ranges: low bin = under -0.2, mid bin = from -0.2 up to -0.06, high bin = -0.06 and over

Qu. Any idea which band LEELEQFARTFKQRRIKLGFTQGDVGLAMGKLYGNDFSQTTIPRFEALNLSFKNMCKLKPLLEKWLNDAE is in?
Ans. high bin

Qu. What do you have for LEELEQFARTFKQRRIKLGFTQGDVGLAMGKLYGNDFSQTTISRGEALNLSFKNMCKLKPLLEKWLNDAE ?
Ans. low bin

Qu. Next: LEELEQFARTFKQRRIKLGFTQGDVGLEMGKLYGNDFSQTTISRFEALNLSFKNMCKLKPLLEKWLNDAE
Ans. high bin

Qu. Try LEELEQFARTFKQRRIKLGFTQGDVGLAMGKLYGNDFSQMTISRFEALNLSFKNMCKLKPLLEKWLNDAE next.
Ans. high bin

Qu. Field entry: LEELEQFARTFKQRRIKLGFTQGDVGLAMGWLYGNDFSQTTISRFEALNLSFKNMCKLKPLLEKWLNDAE
Ans. low bin

Qu. What do you have for LEELEQFQRTFKQRRIKLGFTQGDVGLAMGKLYGNDFSQTTISRFEALNLSFKNMCKLKPLLEKWLNDAE ?
Ans. low bin

Qu. Follow-up entry: LEELEQFARTFKQRRIKLGFTQGDVGMAMGKLYGNDFSQTTISRFEALNLSFKNMCKLKPLLEKWLNDAE
Ans. high bin

Qu. Param item: LEELEQFARTFKQRRIKLGFTQGDVGLAMGKLYGNDFSQHTISRFEALNLSFKNMCKLKPLLEKWLNDAE
Ans. mid bin

Qu. # iterate: LEELEQFARTCKQRRIKLGFTQGDVGLAMGKLYGNDFSQTTISRFEALNLSFKNMCKLKPLLEKWLNDAE
Ans. mid bin

Qu. Now the same for LEELEQFARTFKQRRIKLGFTQGDVGLAMGKLYGNDFSQTTISRFEALNLSFKNMCKLKPLLEKWLNDVE
Ans. mid bin

Qu. Further, for LEELEQFARTFKQRRIKLGFTQGDVGLAMGKLYGNDFSQTTISRFEHLNLSFKNMCKLKPLLEKWLNDAE ?
Ans. mid bin
